ASSAY DETAILS: OPRM1-OPRD1 heterodimerization promoters, counter-screen for HTR5A agonist project, cell-based, luminescence (AID 504913)
MEASUREMENT CONDITIONS: U2OS counter-screen cells, complementation luminescence, 3 h; at 9.3 µM; stronger effect = higher value
The other results are listed elsewhere or left out.
ATTRIBUTE MEASURED: activation (%)
All answers are understood in %, so give the number only.

Look at this compound and give its reported activation. "O=C(CC(O)(C(F)(F)F)C(F)(F)F)Nc1ccc(Cl)c(Cl)c1"
-1.36

What do you get for "CC(C)OC(=O)c1c(NC(=O)c2ccco2)sc2c1CCCC2" ?
4.46

What do you get for "COc1ccc(C(=O)O/N=C(\N)Cc2ccc(Cl)cc2Cl)cc1OC" ?
9.9

What do you get for Cc1ccc(CN2CCN(Cc3ccc(OCCO)cc3)CC2CCO)o1 (stereo unspecified) ?
-0.37

What do you get for "COC(=O)c1cc(C(=O)OCC(=O)Nc2cc(C)on2)cc([N+](=O)[O-])c1" ?
1.24

What do you get for COc1ccc(S(=O)(=O)N2CCN(CC(=O)N3c4ccccc4CC3C)CC2)cc1OC (stereo unspecified) ?
4.47
